- experimental target: 5-HT1A receptor (Homo sapiens, UniProt P08908)
- method: cAMP accumulation assay, 5-HT1A function
- Type: cell-based
- conditions: in brackets after EC50 or IC50; read-out: 5-HT1A Function cAMP (Emax)
experimental endpoint: Emax (%)

Examples from the recorded data:
CCCN(CCCc1c[nH]c2ccc(F)cc12)C1COc2cccc(OC)c2C1 (centres unmarked) [Compound 23] ... 80.5
CCN(CCCc1c[nH]c2c(F)cc(F)cc12)C1COc2c(C(N)=O)ccc(F)c2C1 (centres unmarked) [Compound 132] ... 63
COc1cccc2c1CC(N(CCCc1c[nH]c3ccc(F)cc13)C1CCCC1)CO2 (centres unmarked) [Compound 39] ... 70.5
COc1cccc2c1CC(N(CCCc1c[nH]c3ccccc13)CC1CC1)CO2 (centres unmarked) [Compound 43] ... 91.5
N#Cc1ccc2[nH]cc(CCCN(CC3CC3)[C@@H]3COc4c(F)ccc(C(N)=O)c4C3)c2c1 [Compound 98a] ... 0

(P) CNC(=O)c1ccc(F)c2c1CC(N(CCCc1c[nH]c3ccc(F)cc13)CC1CC1)CO2 (centres unmarked) [Compound 91]
(Q) COC(=O)c1cccc2c1CC(N(CCCc1c[nH]c3c(F)cc(F)cc13)C1CCC1)CO2 (centres unmarked) [Compound 136]
Query: Just tell me: smaller Emax value, P or Q ? Give the label of your selection.
Result: P

====

- experimental target: UniProtKB P08908
- method: cAMP accumulation assay, 5-HT1A function
- Type: cell-based
- conditions: in brackets after EC50 or IC50; read-out: 5-HT1A Function cAMP (Emax)
experimental endpoint: Emax (%)

C[C@H](CCN(C1CCC1)[C@@H]1COc2c(F)ccc(C(N)=O)c2C1)c1c[nH]c2ccc(F)cc12 [Compound 152b] ... 0
CCN(CCCCc1c[nH]c2ccc(F)cc12)C1COc2c(C(N)=O)ccc(F)c2C1 (centres unmarked) [Compound 127] ... 81.5

(I) CCN(CCCc1c[nH]c2ccc(Cl)cc12)C1COc2c(F)ccc(C(N)=O)c2C1 (centres unmarked) [Compound 115]
(II) NC(=O)c1ccc(F)c2c1C[C@@H](N(CCCc1c[nH]c3c(F)cc(F)cc13)CC1CC1)CO2 [Compound 147]
Query: Just tell me: smaller Emax value, I or II ? Give the label of your selection.
Result: II
(II: 0%, I: 77%)

====

- experimental target: cloned human 5-HT1A receptors (Homo sapiens, UniProt P08908)
- Construct: expressed in transfected cells
- method: 35S-GTPγS binding assay, 5-HT1A function
- Type: biochemical
- conditions: antagonist potency, reversal of 8-OH-DPAT; read-out: 5-HT1A Function GTPγS IC50
experimental endpoint: IC50 (nM)
Give a bare numeral; the unit nM is implied.

Examples from the recorded data:
C[C@@H](CCN(C1CCC1)[C@@H]1COc2c(F)ccc(C(N)=O)c2C1)c1c[nH]c2ccc(F)cc12 [Compound 153b] ... 1450
CCN(CCCCc1c[nH]c2ccc(F)cc12)C1COc2c(F)ccc(C(N)=O)c2C1 (stereo not shown) [Compound 80] ... 1000
CCN(CCCc1c[nH]c2ccc(F)cc12)C1COc2c(F)ccc(C(N)=O)c2C1 (single isomer, unassigned; (-)) [Compound 3a] ... 1300

Switching to the query record.
Query: # lookup: IC50 of NC(=O)c1ccc(F)c2c1C[C@@H](NCC1CCc3[nH]c4ccc(F)cc4c3C1)CO2 (single isomer, unassigned; (+)) [Compound 175b]
Result: 174

====

# melting point per entry
Structures can show the parent of a compound that is named as a salt.

CCCN(CCCc1csc2ccc(F)cc12)C1COc2cccc(OC)c2C1 (stereo not drawn) (as salt: hydrochloride) ... 78 °C (dec.)
CCCN(C(C)CCCc1c[nH]c2ccc(F)cc12)C1COc2c(F)ccc(C(N)=O)c2C1 (single isomer, unassigned; (-)) (as salt: hydrochloride) [Compound 14b] ... 147 to 150 °C

Switching to the query record.
Query: # lookup: melting point of CCCN(CCCc1c[nH]c2ccc(F)cc12)C1CCc2c(F)ccc(OC)c2C1 (single isomer, unassigned; (+)) (as salt: hydrochloride) [Compound 51a]
Result: 117 °C (dec.)

====

- experimental target: cloned human 5-HT1A receptors (Homo sapiens)
- Construct: expressed in transfected cells
- Sequence (P08908 1-422): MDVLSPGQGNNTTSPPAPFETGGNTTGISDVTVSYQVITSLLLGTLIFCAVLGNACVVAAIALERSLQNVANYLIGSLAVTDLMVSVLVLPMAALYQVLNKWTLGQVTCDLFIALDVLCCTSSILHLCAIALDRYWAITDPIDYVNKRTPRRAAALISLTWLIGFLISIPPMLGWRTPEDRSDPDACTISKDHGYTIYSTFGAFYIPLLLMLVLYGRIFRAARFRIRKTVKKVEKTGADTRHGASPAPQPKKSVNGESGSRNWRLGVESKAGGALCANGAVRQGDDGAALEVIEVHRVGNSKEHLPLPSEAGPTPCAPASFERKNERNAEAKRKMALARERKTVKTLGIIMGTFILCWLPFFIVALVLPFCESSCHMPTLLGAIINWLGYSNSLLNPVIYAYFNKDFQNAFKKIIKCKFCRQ
- method: 35S-GTPγS binding assay, 5-HT1A function
- Format: biochemical
- conditions: maximum inhibitory effect, in brackets after IC50; read-out: 5-HT1A Function GTPγS (Imax)
experimental endpoint: Emax (%)

CCN(CCCc1c[nH]c2c(Cl)cccc12)C1COc2c(F)ccc(C(N)=O)c2C1 (stereo not shown) ... 59
CCN(C(C)CCc1c[nH]c2ccc(F)cc12)C1COc2c(F)ccc(C(N)=O)c2C1 (single isomer, unassigned; (-)) [Compound 16a] ... 100
COc1cccc2c1CC(N[C@H]1CC[C@H](c3c[nH]c4ccc(F)cc43)CC1)CO2 (relative stereo) [Compound 181b] ... 44.6

(1) CCN(CCCCc1coc2ccccc12)C1COc2cccc(OC)c2C1 (stereo not shown)
(2) COc1cccc2c(CCCNC3COc4c(F)ccc(C(N)=O)c4C3)coc12 (stereo not shown)
Query: Just tell me: smaller Emax value, 1 or 2 ? Give the label of your selection.
Result: 1
(1: 31%, 2: 100%)

====

- experimental target: 5-HT1A receptor (Homo sapiens, UniProt P08908)
- Sequence (P08908 1-422): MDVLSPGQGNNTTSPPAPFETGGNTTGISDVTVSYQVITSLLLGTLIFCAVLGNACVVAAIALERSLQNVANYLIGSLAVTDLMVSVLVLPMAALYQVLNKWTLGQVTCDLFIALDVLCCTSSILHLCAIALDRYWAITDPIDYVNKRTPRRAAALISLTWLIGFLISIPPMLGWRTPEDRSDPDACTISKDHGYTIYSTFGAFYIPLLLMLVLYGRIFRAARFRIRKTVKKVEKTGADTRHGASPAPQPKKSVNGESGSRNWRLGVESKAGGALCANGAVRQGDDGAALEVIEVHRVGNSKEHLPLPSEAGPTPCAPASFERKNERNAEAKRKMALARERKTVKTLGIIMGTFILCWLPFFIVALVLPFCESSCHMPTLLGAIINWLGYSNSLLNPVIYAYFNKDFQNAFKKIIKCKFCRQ
- method: cAMP accumulation assay, 5-HT1A function
- Type: cell-based
- conditions: cells marked IC50 (antagonist); read-out: 5-HT1A Function cAMP IC50
pIC50: −log10 of the molar value.
experimental endpoint: pIC50

Examples from the recorded data:
CCCNC(=O)c1ccc(F)c2c1CC(N(CCCc1c[nH]c3ccc(F)cc13)C1CCC1)CO2 (centres unmarked) [Compound 61] ... 6.23
CNC(=O)c1ccc(F)c2c1CC(N(CCCCc1c[nH]c3ccc(F)cc13)C1CCC1)CO2 (centres unmarked) [Compound 95] ... 6.92
CCN(CCCc1c[nH]c2ccc(F)cc12)C1COc2c(F)ccc(C(N)=O)c2C1 (single isomer, unassigned; (-)) [Compound 3a] ... 6.87
NC(=O)c1ccc(F)c2c1CC(N(CCCCc1c[nH]c3ccc(F)cc13)C1CCC1)CO2 (centres unmarked) [Compound 83] ... 7.63
NC(=O)c1ccc(F)c2c1CC(N(CCCCc1c[nH]c3ccc(F)cc13)CC1CC1)CO2 (centres unmarked) [Compound 82] ... 7.29

(A) CCN(CCCCc1coc2c(OC)cccc12)C1COc2c(F)ccc(C(N)=O)c2C1 (centres unmarked) [Compound 168]
(B) COc1cccc2c(CCCN(C3CCC3)C3COc4c(F)ccc(C(N)=O)c4C3)coc12 (centres unmarked) [Compound 164]
(C) CCCN(CCCCc1coc2c(OC)cccc12)[C@H]1COc2c(F)ccc(C(N)=O)c2C1 [Compound 172]
Query: Order by pIC50, ascending. Rank the items, then write their labels in that order.
Result: C, B, A

====

- experimental target: 5-HT1A receptor (Homo sapiens)
- method: 5-HT1A receptor affinity: displacement of [3H] 8-OH-DPAT
- Assay type: binding
- Design: expressed in transfected cells
- conditions: displacement of [3H] 8-OH-DPAT; CHO cells stably transfected with human 5-HT1A receptors; read-out: 5-HT1A Receptor Affinity Ki
pKi: −log10 of the molar value.
experimental endpoint: pKi

Examples from the recorded data:
NC(=O)c1ccc(F)c2c1C[C@H](N(CCCCc1c[nH]c3ccc(F)cc13)C1CCC1)CO2 [Compound 83b] ... 6.95
COc1cccc2c1CC(N(CCCc1c[nH]c3ccc(F)cc13)C1CCC1)CO2 (centres unmarked) [Compound 34] ... 7.81
COc1cccc2c1CC(N(CCCc1c[nH]c3ccc(C#N)cc13)CC1CC1)CO2 (centres unmarked) [Compound 45] ... 8.67
CCCNC(=O)c1ccc(F)c2c1CC(N(CCCc1c[nH]c3ccc(F)cc13)C1CCC1)CO2 (centres unmarked) [Compound 61] ... 6.71
COc1cccc2c1C[C@@H](N(CCCc1c[nH]c3ccc(F)cc13)C1CCC1)CO2 [Compound 35] ... 8.67

(a) CCCN(CCCc1c[nH]c2ccc(F)cc12)C1CCc2c(F)ccc(OC)c2C1 (single isomer, unassigned; (+)) [Compound 51a]
(b) CC(Cc1c[nH]c2ccc(F)cc12)CN(CC1CC1)[C@H]1COc2c(F)ccc(C(N)=O)c2C1 (single isomer, unassigned) [Compound 155b]
(c) N#Cc1ccc2[nH]cc(CCCN(CC3CC3)[C@@H]3COc4c(F)ccc(C(N)=O)c4C3)c2c1 [Compound 98a]
Query: Order by pKi, ascending. Rank the items, then write their labels in that order.
Result: b, c, a
